# System name: Voltage-gated inwardly rectifying potassium channel KCNH2 (Homo sapiens, UniProt Q12809)
# Sequence (Q12809 whole entry): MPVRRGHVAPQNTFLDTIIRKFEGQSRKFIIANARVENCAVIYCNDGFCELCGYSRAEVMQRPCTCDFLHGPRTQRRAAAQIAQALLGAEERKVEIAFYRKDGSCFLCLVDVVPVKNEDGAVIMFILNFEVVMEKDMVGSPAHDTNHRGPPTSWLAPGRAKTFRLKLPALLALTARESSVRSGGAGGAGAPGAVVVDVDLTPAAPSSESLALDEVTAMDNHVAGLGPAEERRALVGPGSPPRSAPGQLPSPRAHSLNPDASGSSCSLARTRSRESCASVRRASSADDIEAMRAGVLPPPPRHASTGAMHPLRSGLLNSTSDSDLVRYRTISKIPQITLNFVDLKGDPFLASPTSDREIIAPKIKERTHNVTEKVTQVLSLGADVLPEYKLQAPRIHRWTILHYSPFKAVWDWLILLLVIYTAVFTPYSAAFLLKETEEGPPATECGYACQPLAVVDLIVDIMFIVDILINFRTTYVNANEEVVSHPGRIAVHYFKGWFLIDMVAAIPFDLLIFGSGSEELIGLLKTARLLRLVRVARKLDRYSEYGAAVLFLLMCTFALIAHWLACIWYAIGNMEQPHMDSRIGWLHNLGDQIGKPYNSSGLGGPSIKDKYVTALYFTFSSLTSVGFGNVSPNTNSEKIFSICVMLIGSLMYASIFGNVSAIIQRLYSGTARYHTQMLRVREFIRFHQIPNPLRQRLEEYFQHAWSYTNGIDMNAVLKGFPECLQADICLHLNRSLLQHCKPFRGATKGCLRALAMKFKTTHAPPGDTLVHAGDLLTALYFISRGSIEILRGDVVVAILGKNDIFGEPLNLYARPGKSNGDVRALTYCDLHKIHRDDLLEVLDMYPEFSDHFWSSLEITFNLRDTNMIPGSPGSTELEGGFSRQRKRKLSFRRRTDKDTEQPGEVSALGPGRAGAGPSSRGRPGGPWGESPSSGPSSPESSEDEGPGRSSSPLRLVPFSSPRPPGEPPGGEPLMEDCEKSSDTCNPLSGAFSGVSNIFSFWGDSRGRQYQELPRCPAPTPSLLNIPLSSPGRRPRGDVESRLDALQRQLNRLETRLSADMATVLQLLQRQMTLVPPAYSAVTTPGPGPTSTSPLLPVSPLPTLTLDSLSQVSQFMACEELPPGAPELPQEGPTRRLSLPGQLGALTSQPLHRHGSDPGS
Quantity name: pIC50
Schema: pIC50 number; meaning minus log10 of the concentration expressed in molar units.

query: # lookup: pIC50 of CC[C@@H](CC(=O)NCC1CCCCC1)n1c(N)nc2cc(Cl)ccc21
result: 5.12

* * *

# Measurement notes: Half life in human liver microsomes
# Format: ADME, Microsome
Quantity name: half-life (min)
Reply with just the number (in min).

query: # lookup: half-life of CC[C@@H](CC(=O)NCC1CCCCC1)n1c(N)nc2cc(Cl)ccc21
result: 5.5

* * *

# System name: Beta-secretase 1 (Homo sapiens, UniProt P56817)
# Sequence (P56817 whole entry): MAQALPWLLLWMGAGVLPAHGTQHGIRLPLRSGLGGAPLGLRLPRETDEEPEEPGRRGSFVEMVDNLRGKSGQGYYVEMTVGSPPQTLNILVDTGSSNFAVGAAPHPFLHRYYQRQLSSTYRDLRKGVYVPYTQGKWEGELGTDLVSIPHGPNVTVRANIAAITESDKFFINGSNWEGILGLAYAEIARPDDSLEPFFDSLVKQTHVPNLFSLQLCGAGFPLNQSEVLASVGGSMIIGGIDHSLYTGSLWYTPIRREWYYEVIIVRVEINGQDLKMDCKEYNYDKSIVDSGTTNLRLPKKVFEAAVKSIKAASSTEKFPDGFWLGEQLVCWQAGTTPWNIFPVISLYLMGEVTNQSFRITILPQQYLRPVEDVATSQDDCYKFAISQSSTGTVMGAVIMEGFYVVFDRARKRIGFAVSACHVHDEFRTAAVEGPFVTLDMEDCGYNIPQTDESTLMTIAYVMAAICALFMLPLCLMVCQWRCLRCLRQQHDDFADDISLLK
# Measurement notes: Inhibition of BACE1 assessed as amyloid beta secretion by cell based assay
Quantity name: pIC50
Schema: pIC50 number; meaning minus log10 of the concentration expressed in molar units.

query: # lookup: pIC50 of CC(C)C[C@@H](CC(=O)NCc1cccc(F)c1)n1c(N)nc2cc(Cl)ccc21
result: 4.27

query: # lookup: pIC50 of CC[C@@H](CC(=O)NC(C)C)n1c(N)nc2cc(Cl)ccc21
result: 3.16

query: # lookup: pIC50 of CC[C@@H](CC(=O)NCCC1CCNC1)n1c(N)nc2cc(Cl)ccc21 (some centres not stated)
result: 3.57

query: # lookup: pIC50 of CC[C@@H](CC(=O)NCCN1CCOCC1)n1c(N)nc2cc(Cl)ccc21
result: 3.36

query: # lookup: pIC50 of COn1c(-c2ccccc2)nc2ncccc21
result: 3.03

query: # lookup: pIC50 of CC[C@@H](CC(=O)NCc1ccc(F)cc1)n1c(N)nc2cc(Cl)ccc21
result: 3.58

query: # lookup: pIC50 of CC[C@@H](CC(=O)NCc1cccc(F)c1)n1c(N)nc2cc(Cl)ccc21
result: 3.47

query: # lookup: pIC50 of CC[C@@H](CC(=O)N[C@@H](COC(C)(C)C)C(=O)O)n1c(N)nc2cc(Cl)ccc21
result: 4.06

query: # lookup: pIC50 of CC(C)C[C@@H](CC(=O)NC(C)C)n1c(N)nc2cc(Cl)ccc21
result: 3.61

query: # lookup: pIC50 of CC(C)NC(=O)CCCn1c(N)nc2cc(Cl)ccc21
result: 3.71

query: # lookup: pIC50 of Nc1nc2ccc(Cl)cc2[nH]1
result: 3.14

query: # lookup: pIC50 of CN1CCC(NC(=O)CCCn2c(N)nc3cc(Cl)ccc32)CC1
result: 3.49

query: # lookup: pIC50 of c1cnc2ncc(-c3ccncc3)n2c1
result: 3.00

query: # lookup: pIC50 of Nc1nc2cc(Cl)ccc2n1CCCC(=O)NCC1CC1
result: 2.54

query: # lookup: pIC50 of Clc1cccc(-c2cnc3ncccn23)c1
result: 3.06

query: # lookup: pIC50 of CC[C@@H](CC(=O)NCCC(C)(C)C)n1c(N)nc2cc(Cl)ccc21
result: 4.02
